Cited source: ChEMBL document CHEMBL3882724

For each record, write down the corresponding IC50.
Molecular target: Steroid 17-alpha-hydroxylase/17,20 lyase (Homo sapiens)
Experiment: Inhibition of CYP17 in human testicular microsomes using 17alpha-hydroxypregnenolone as substrate assessed as decrease in DHEA levels at 1 nM after 90 mins by ELISA relative to control
Set-up: species or system Testis

stdin: Given the compound C=C1C[C@@H]2[C@H](CC[C@]3(C)C(c4cncc(F)c4)=CC[C@@H]23)[C@@]2(C)C=CC(=O)C=C12 , write its reported IC50.
stdout: > 0.1 µM

stdin: Given the compound CC1C[C@H]2C3=CC=C(c4cccnc4)[C@@]3(C)CC[C@@H]2[C@@]2(C)CCC(=O)C=C12 (some centres not stated) , write its reported IC50.
stdout: ≤ 0.01 µM

stdin: Given the compound CCC1C[C@@H]2[C@H](CC[C@]3(C)C(c4cccnc4)=CC[C@@H]23)[C@@]2(C)CCC(=O)C=C12 (some centres not stated) , write its reported IC50.
stdout: 0.01 to 0.1 µM

stdin: Given the compound CC1C[C@@H]2[C@H](CC[C@]3(C)C(c4cncc(F)c4)=CC[C@@H]23)[C@@]2(C)CCC(=O)C=C12 (some centres not stated) , write its reported IC50.
stdout: > 0.1 µM

stdin: Given the compound C=C1CC2[C@H](CC[C@]3(C)C(c4cccnc4)=CC[C@@H]23)C2(C)C=CC(=O)C=C12 (single isomer, unassigned) , write its reported IC50.
stdout: ≤ 0.01 µM

stdin: Given the compound C[C@]12CC[C@H]3[C@@H](CCC4=CC(=O)NCC[C@@]43C)C1=CC=C2c1cncc(F)c1 , write its reported IC50.
stdout: > 0.1 µM

stdin: Given the compound C[C@]12CC[C@H]3[C@@H](CC(CO)C4=CC(=O)CC[C@@]43C)C1=CC=C2c1cccnc1 (some centres not stated) , write its reported IC50.
stdout: > 0.1 µM

---

Molecular target: Steroid 17-alpha-hydroxylase/17,20 lyase (Homo sapiens)
Sequence (P05093 whole entry): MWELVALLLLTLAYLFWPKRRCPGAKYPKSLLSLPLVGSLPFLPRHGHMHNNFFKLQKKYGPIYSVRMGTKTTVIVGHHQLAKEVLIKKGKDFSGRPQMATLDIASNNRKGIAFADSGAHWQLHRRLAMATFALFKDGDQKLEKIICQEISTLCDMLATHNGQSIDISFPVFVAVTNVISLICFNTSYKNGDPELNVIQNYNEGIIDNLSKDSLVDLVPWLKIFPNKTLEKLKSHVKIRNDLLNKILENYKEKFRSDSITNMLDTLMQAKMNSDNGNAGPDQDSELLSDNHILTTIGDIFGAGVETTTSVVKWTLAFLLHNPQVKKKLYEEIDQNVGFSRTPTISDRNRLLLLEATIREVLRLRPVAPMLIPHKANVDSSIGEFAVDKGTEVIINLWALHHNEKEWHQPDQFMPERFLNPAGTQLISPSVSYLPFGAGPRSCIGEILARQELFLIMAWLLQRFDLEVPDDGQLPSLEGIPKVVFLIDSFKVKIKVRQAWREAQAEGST
Test: Inhibition of CYP17 in human testicular microsomes using 17alpha-hydroxypregnenolone as substrate assessed as decrease in DHEA levels at 10 nM after 90 mins by ELISA relative to control
Parameters: species or system Testis
Conditions: 1.5 h
For each record, write down the corresponding inhibition at 0.01 µM.

stdin: Given the compound C[C@]12CC[C@H]3[C@@H](CC[C@H]4CC(=O)NCC[C@@]43C)C1=CC=C2n1ccnn1 , write its reported inhibition at 0.01 µM.
stdout: 1 to 50%

stdin: Given the compound COc1cncc(C2=CC=C3[C@@H]4CC=C5C[C@@H](O)CC[C@]5(C)[C@H]4CC[C@]23C)c1 , write its reported inhibition at 0.01 µM.
stdout: ≥ 80%

stdin: Given the compound COc1cncc(C2=CC[C@H]3[C@@H]4CCC5=CC(=O)N(C)CC[C@]5(C)[C@H]4CC[C@]23C)c1 , write its reported inhibition at 0.01 µM.
stdout: 50 to 80%

stdin: Given the compound C[C@]12CC[C@H]3[C@@H](CCC4=CC(=O)NCC[C@@]43C)C1=CC=C2n1ccnc1 , write its reported inhibition at 0.01 µM.
stdout: ≥ 80%

stdin: Given the compound C[C@]12CCCC(=O)C1CC[C@@H]1[C@@H]2CC[C@]2(C)C(c3cccnc3)=CC[C@@H]12 (some centres not stated) , write its reported inhibition at 0.01 µM.
stdout: ≥ 80%

stdin: Given the compound C[C@]12CCNC(=O)C=C1CC[C@@H]1[C@@H]2CC[C@]2(C)C(n3ncnn3)=CC[C@@H]12 , write its reported inhibition at 0.01 µM.
stdout: ≥ 80%

stdin: Given the compound C[C@]12CCC(=O)CCC1=CC[C@@H]1[C@@H]2CC[C@]2(C)C(n3ccnc3)=CC[C@@H]12 , write its reported inhibition at 0.01 µM.
stdout: ≥ 80%

---

Target: Steroid 17-alpha-hydroxylase/17,20 lyase (Homo sapiens)
Assay: Inhibition of CYP17 in human testicular microsomes using 17alpha-hydroxypregnenolone as substrate assessed as decrease in DHEA levels at 10 nM after 90 mins by ELISA relative to control
Set-up: species or system Testis
Details: 1.5 h
For each record, write down the corresponding inhibition at 0.01 µM.

stdin: Given the molecule C[C@]12CCNC(=O)C=C1CC[C@@H]1[C@@H]2CC[C@]2(C)C(c3cnccn3)=CC[C@@H]12 , write its reported inhibition at 0.01 µM.
stdout: ≥ 80%

stdin: Given the molecule CN1CC[C@@]2(C)C(=CC1=O)CC[C@@H]1[C@@H]2CC[C@]2(C)C(n3cnc4ccccc43)=CC[C@@H]12 , write its reported inhibition at 0.01 µM.
stdout: 1 to 50%

stdin: Given the molecule CCc1cncc(C2=CC[C@H]3[C@@H]4CCC5=CC(=O)N(C)CC[C@]5(C)[C@H]4CC[C@]23C)c1 , write its reported inhibition at 0.01 µM.
stdout: 50 to 80%

stdin: Given the molecule C[C@]12CC[C@H]3[C@@H](CC[C@H]4CC(=O)CC[C@@]43C)C1=CC=C2n1ccnc1 , write its reported inhibition at 0.01 µM.
stdout: ≥ 80%

stdin: Given the molecule CC(=O)O[C@H]1CC[C@@]2(C)[C@@H](CC[C@@H]3[C@@H]2CC[C@]2(C)C(n4ccnn4)=CC[C@@H]32)C1 , write its reported inhibition at 0.01 µM.
stdout: ≥ 80%

stdin: Given the molecule Cc1cncc(C2=CC[C@H]3[C@@H]4CCC5=CC(=O)NCC[C@]5(C)[C@H]4CC[C@]23C)c1 , write its reported inhibition at 0.01 µM.
stdout: 50 to 80%

stdin: Given the molecule C=Cc1cncc(C2=CC[C@H]3[C@@H]4CCN5C(=O)CCCC[C@]5(C)[C@H]4CC[C@]23C)c1 , write its reported inhibition at 0.01 µM.
stdout: 50 to 80%

---

Experiment: Half life in rat liver microsomes at 1 uM by LC-MS/MS analysis
measurement type: half-life at 1 µM

stdin: Given the compound C[C@]12CC(O)C[C@@H]1CC[C@@H]1[C@@H]2CC[C@]2(C)C(n3ccnc3)=CC[C@@H]12 (stereo not given in full) , write its reported half-life at 1 µM.
stdout: 10 to 60 min

stdin: Given the compound Cc1cncc(C2=CC[C@H]3[C@@H]4CC[C@H]5COCCC[C@]5(C)[C@H]4CC[C@]23C)c1 , write its reported half-life at 1 µM.
stdout: 1 to 10 min

stdin: Given the compound COc1cncc(C2=CC=C3[C@@H]4CC=C5C[C@@H](O)CC[C@]5(C)[C@H]4CC[C@]23C)c1 , write its reported half-life at 1 µM.
stdout: ≥ 50 min

stdin: Given the compound C[C@]12CCCOCC1CCC1C2CC[C@]2(C)C(c3cccnc3)=CC[C@@H]12 (single isomer, unassigned) , write its reported half-life at 1 µM.
stdout: 1 to 10 min

stdin: Given the compound Cc1cncc(C2=CC[C@H]3[C@@H]4CCC5=CC(=O)NCC[C@]5(C)[C@H]4CC[C@]23C)c1 , write its reported half-life at 1 µM.
stdout: 10 to 60 min

stdin: Given the compound CCOc1cncc(C2=CC[C@H]3[C@@H]4CC[C@H]5COCCC[C@]5(C)[C@H]4CC[C@]23C)c1 , write its reported half-life at 1 µM.
stdout: 1 to 10 min

stdin: Given the compound C[C@]12CCC(=O)OC[C@@H]1CC[C@@H]1[C@@H]2CC[C@]2(C)C(c3cccnc3)=CC[C@@H]12 , write its reported half-life at 1 µM.
stdout: 10 to 60 min

stdin: Given the compound CN1C(=O)COC[C@@]2(C)C1CC[C@@H]1[C@@H]2CC[C@]2(C)C(c3cccnc3)=CC[C@@H]12 (stereo not given in full) , write its reported half-life at 1 µM.
stdout: 1 to 10 min

stdin: Given the compound C[C@]12CCNC(=O)C=C1CC[C@@H]1[C@@H]2CC[C@]2(C)C(n3ncnn3)=CC[C@@H]12 , write its reported half-life at 1 µM.
stdout: 1 to 10 min

stdin: Given the compound C[C@]12CCNC(=O)C[C@@H]1CC[C@@H]1[C@@H]2CC[C@]2(C)C(n3ccnc3)=CC[C@@H]12 , write its reported half-life at 1 µM.
stdout: 10 to 60 min

stdin: Given the compound Cc1cn(C2=CC[C@H]3[C@@H]4CCC5=CC(=O)NCC[C@]5(C)[C@H]4CC[C@]23C)cn1 , write its reported half-life at 1 µM.
stdout: 10 to 60 min

stdin: Given the compound COc1cncc(C2CC[C@H]3[C@@H]4CCC5=CC(=O)NCC[C@]5(C)[C@H]4CC[C@]23C)c1 (stereo not given in full) , write its reported half-life at 1 µM.
stdout: 10 to 60 min

stdin: Given the compound C[C@]12CC[C@H]3[C@@H](CCC4=CC(=O)CC[C@@]43C)C1=CC=C2n1ccnc1 , write its reported half-life at 1 µM.
stdout: 10 to 60 min

stdin: Given the compound C[C@]12CC[C@H]3[C@@H](CC[C@H]4C[C@@H](O)CC[C@@]43C)C1=CC=C2n1ccnn1 , write its reported half-life at 1 µM.
stdout: 1 to 10 min

stdin: Given the compound C[C@]12CCNC(=O)C[C@@H]1CC[C@@H]1[C@@H]2CC[C@]2(C)C(n3ccnn3)=CC[C@@H]12 , write its reported half-life at 1 µM.
stdout: 10 to 60 min
